# Tested on: SKBR3
# Procedure Text: relative cell number vs DMSO control (72 h) (% of DMSO); higher = less growth inhibition (more cells)
# Stated Conditions: sgRNA knockout: sgNT, 10 nM
Label 1 (yes) when relative cell number is at or above 90; anything below gets 0 (no).

In: Check if relative cell number >= 90 (inclusive). Item: `O=C1c2c(O)ccc(O)c2C(=O)c2c(NCCNCCO)ccc(NCCNCCO)c21`
Out: 0 (no)

In: Check if relative cell number >= 90 (inclusive). Item: `Oc1cccc(-c2nc(N3CCOCC3)c3oc4ncccc4c3n2)c1`
Out: 1 (yes)

In: Check if relative cell number >= 90 (inclusive). Item: `C[C@]1(O)C[C@@H](c2nc(-c3ccc4ccc(-c5ccccc5)nc4c3)c3c(N)nccn32)C1`
Out: 1 (yes)

In: Check if relative cell number >= 90 (inclusive). Item: `COc1cc2c(Oc3ccc4[nH]c(C)cc4c3F)ncnc2cc1OCCCN1CCCC1`
Out: 1 (yes)

In: Check if relative cell number >= 90 (inclusive). Item: `O=c1ncccn1[C@@H]1O[C@H](CO)[C@@H](O)[C@H]1O`
Out: 1 (yes)

In: Check if relative cell number >= 90 (inclusive). Item: O=C(Nc1ccc([N+](=O)[O-])cc1Cl)c1cc(Cl)ccc1O [Niclosamide]
Out: 1 (yes)

In: Check if relative cell number >= 90 (inclusive). Item: `COC(=O)[C@]12CCC(C)(C)C[C@H]1[C@H]1C(=O)C=C3[C@@]4(C)C=C(C#N)C(=O)C(C)(C)[C@@H]4CC[C@@]3(C)[C@]1(C)CC2`
Out: 1 (yes)

In: Check if relative cell number >= 90 (inclusive). Item: `CN1CCN(CCOc2cc(OC3CCOCC3)c3c(Nc4c(Cl)ccc5c4OCO5)ncnc3c2)CC1`
Out: 0 (no)

In: Check if relative cell number >= 90 (inclusive). Item: `CN1CCN(CCCN2c3ccccc3Sc3ccc(C(F)(F)F)cc32)CC1`
Out: 0 (no)

In: Check if relative cell number >= 90 (inclusive). Item: `COc1cc2c(cc1-c1c(C)noc1C)ncc1[nH]c(=O)n([C@H](C)c3ccccn3)c12`
Out: 0 (no)

In: Check if relative cell number >= 90 (inclusive). Item: `CN(C)C(=O)c1ccc(S(=O)(=O)c2ccc(NC(=O)[C@@](C)(O)C(F)(F)F)c(Cl)c2)cc1`
Out: 1 (yes)

====

# System: BT-20
# Procedure Text: relative cell number vs DMSO control (72 h) (% of DMSO); higher = less growth inhibition (more cells)
# Stated Conditions: sgRNA knockout: sgNT, 1000 nM
Assay Readout: relative cell number

// CN/C(=N\CCSCc1nc[nH]c1C)NC#N [Cimetidine] : relative cell number value = 100

// COc1cc2nccc(Oc3ccc(NC(=O)NC4CC4)c(Cl)c3)c2cc1C(N)=O [Lenvatinib] : relative cell number value = 128

// CC(C)C[C@@H](C=O)NC(=O)[C@H](CC(C)C)NC(=O)[C@H](CC(C)C)NC(=O)OCc1ccccc1 [MG132] : relative cell number value = 35.4

====

# Test system: BT-20
# Procedure Text: relative cell number vs DMSO control (72 h) (% of DMSO); higher = less growth inhibition (more cells)
# Stated Conditions: sgRNA knockout: sgNT, 100 nM
Please respond with reported relative cell number for every item in the list.

// relative cell number (BT-20) for c1cc(Nc2cc(C3CC3)[nH]n2)nc(Nc2ccc3nc[nH]c3c2)n1 [APY29] = 79.9

// relative cell number (BT-20) for COC(=O)Nc1nc2cc(C(=O)c3ccccc3)ccc2[nH]1 [Mebendazole] = 78.9

// relative cell number (BT-20) for C[C@]12CC[C@@H]3c4ccc(O)cc4C[C@@H](CCCCCCCCC[S+]([O-])CCCC(F)(F)C(F)(F)F)[C@H]3[C@@H]1CC[C@@H]2O (stereo partly drawn) [Fulvestrant] = 79.5

====

Please respond with reported relative cell number for every item in the list.
# Test system: SKBR3
# Procedure Text: relative cell number vs DMSO control (72 h) (% of DMSO); higher = less growth inhibition (more cells)
# Stated Conditions: sgRNA knockout: sgNT, 10 nM
Respond using a number only.

// N.N.[Cl][Pt][Cl] [Cisplatin] : relative cell number value = 97.5

// `Cn1cnc2c(F)c(Nc3ccc(Br)cc3Cl)c(C(=O)NOCCO)cc21` : relative cell number value = 97.8

// O=C(O)C(Cc1c[nH]c2ccccc12)N1C(=O)c2ccccc2C1=O (centres undefined) : relative cell number value = 97.1

// C=C1C(=O)O[C@H]2[C@H]1CC/C(C)=C/CC[C@@]1(C)O[C@@H]21 [Parthenolide] : relative cell number value = 98.3

====

# Test system: BT-20
# Procedure Text: relative cell number vs DMSO control (72 h) (% of DMSO); higher = less growth inhibition (more cells)
# Stated Conditions: sgRNA knockout: sgNT, 100 nM
Please respond with reported relative cell number for every item in the list.
Respond using a number only.

// `CNC(=O)c1cc(Oc2ccc(NC(=O)Nc3ccc(Cl)c(C(F)(F)F)c3)cc2)ccn1` : relative cell number value = 100

// `Nc1ccccc1NC(=O)c1ccc(CNC(=O)OCc2cccnc2)cc1` : relative cell number value = 103

// `CCOc1cc2ncc(C#N)c(Nc3ccc(OCc4ccccn4)c(Cl)c3)c2cc1NC(=O)/C=C/CN(C)C` : relative cell number value = 99.2

// `Cc1ccc(F)c(NC(=O)Nc2ccc(-c3cccc4[nH]nc(N)c34)cc2)c1` : relative cell number value = 105

// `COc1cc2ncnc(Nc3ccc(F)c(Cl)c3)c2cc1OCCCN1CCOCC1` : relative cell number value = 80.8

// COc1cc([C@@H]2c3cc4c(cc3[C@@H](O[C@@H]3O[C@@H]5CO[C@@H](c6cccs6)O[C@H]5[C@H](O)[C@H]3O)[C@H]3COC(=O)[C@H]23)OCO4)cc(OC)c1O [Teniposide] : relative cell number value = 67.9

// `CC(C)(C)c1cnc(CSc2cnc(NC(=O)C3CCNCC3)s2)o1` : relative cell number value = 79.3

// `C[C@@]1(C(=O)Nc2ccc(F)nc2)CCCN1c1nc(Nc2cc(C3CC3)n[nH]2)c2cccn2n1` : relative cell number value = 89.5

// `CCC(C)(C)C(=O)O[C@H]1C[C@@H](C)C=C2C=C[C@H](C)[C@H](CC[C@@H]3C[C@@H](O)CC(=O)O3)[C@H]21` : relative cell number value = 72.5

// O=C(NOCC(O)CO)c1cc(Br)c(F)c(F)c1Nc1ccc(I)cc1F (stereo unspecified) : relative cell number value = 86.9

// `Cc1[nH]c(/C=C2\C(=O)Nc3ccc(S(=O)(=O)N(C)c4cccc(Cl)c4)cc32)c(C)c1C(=O)N1CCN(C)CC1` : relative cell number value = 95

====

# Tested on: BT-20
# Procedure Text: relative cell number vs DMSO control (72 h) (% of DMSO); higher = less growth inhibition (more cells)
# Stated Conditions: sgRNA knockout: sgNT, 1000 nM
Assay Readout: relative cell number
Respond using a number only.

// relative cell number (BT-20) for `CC[C@@]1(O)C(=O)OCc2c1cc1n(c2=O)Cc2cc3c(CN(C)C)c(O)ccc3nc2-1` = 30.9

// relative cell number (BT-20) for `Fc1ccc(CNc2ncnc3ccc(F)cc23)cc1` = 89.8

// relative cell number (BT-20) for O=P1(N(CCCl)CCCl)NCCCO1 (stereo unspecified) [Cyclophosphamide] = 107

// relative cell number (BT-20) for COc1cc2nccc(Oc3ccc(NC(=O)C4(C(=O)Nc5ccc(F)cc5)CC4)cc3)c2cc1OC [Cabozantinib] = 94.5

// relative cell number (BT-20) for `FC(F)c1nc2ccccc2n1-c1nc(N2CCOCC2)nc(N2CCOCC2)n1` = 70.9

// relative cell number (BT-20) for `CC(C)CC(=O)Nc1n[nH]c2c1CN(C(=O)C1CCN(C)CC1)C2(C)C` = 43.3

// relative cell number (BT-20) for `Cc1nc(Nc2ncc(C(=O)Nc3c(C)cccc3Cl)s2)cc(N2CCN(CCO)CC2)n1` = 105

// relative cell number (BT-20) for `Cn1c(CCCC(=O)O)nc2cc(N(CCCl)CCCl)ccc21` = 112

// relative cell number (BT-20) for `C=CCc1cccc(/C=N/NC(=O)CN2CCN(Cc3ccccc3)CC2)c1O` = 74.6

// relative cell number (BT-20) for `O=[N+]([O-])c1ccc(O)c2ncccc12` = 114

// relative cell number (BT-20) for `Oc1cccc(-c2nc(N3CCOCC3)c3oc4ncccc4c3n2)c1` = 68.7

====

# System: BT-20
# Procedure Text: relative cell number vs DMSO control (72 h) (% of DMSO); higher = less growth inhibition (more cells)
# Stated Conditions: sgRNA knockout: sgNT, 100 nM
Please respond with reported relative cell number for every item in the list.
Respond using a number only.

// relative cell number (BT-20) for `Cc1cnc(Nc2ccc(OCCN3CCCC3)cc2)nc1Nc1cccc(S(=O)(=O)NC(C)(C)C)c1` = 92.6

// relative cell number (BT-20) for C=C1C(=O)O[C@H]2[C@H]1CC/C(C)=C/CC[C@@]1(C)O[C@@H]21 [Parthenolide] = 101

// relative cell number (BT-20) for O=P1(NCCCl)OCCCN1CCCl (centres undefined) [Ifosfamide] = 89.6

// relative cell number (BT-20) for `Cc1cn(-c2cc(NC(=O)c3ccc(C)c(Nc4nccc(-c5cccnc5)n4)c3)cc(C(F)(F)F)c2)cn1` = 87.1

Sourced from the supplement of paper PMC7661543
